Test system: mAb6H8
assayRemarks: RIA binding specificity, relative potency to METH
Parameters: species or system mouse
conditions: RIA IC50 value for METH/RIA IC50 value for test ligand
quantityMeasured: Relative Potency to METH, mAb6H8

* CC(N)Cc1ccc2c(c1)OCO2 (single isomer, unassigned; (-)) [(−)MDA] | <0.001
* CNC(C)Cc1ccc2c(c1)OCO2 (single isomer, unassigned; (-)) [(−)MDMA] | 0.018
* CNC(C)Cc1ccc2c(c1)OCO2 (single isomer, unassigned; (+)) [(+)MDMA, (+)-3,4-methylenedioxymethamphetamine] | 3.40
* NCCc1ccccc1 [β-phenylethylamine] | <0.001
* NCCc1ccc(O)cc1 [tyramine] | <0.001
* CNC(C)Cc1ccc(O)cc1 (stereo not shown) [4-OH-METH] | 0.294
* NCCc1c[nH]c2ccc(O)cc12 [serotonin] | <0.001
